This collection of values is drawn from patent US20230330253A1.

A collection of binders and their measured EC50, ADCC Reporter Bioassay (luciferase)
# system.name: human claudin 18.2 (CLDN18.2) (human)
# method.notes: cell-based or functional assay
measure.name: EC50, ADCC Reporter Bioassay (luciferase) (nM)

binder: 120B7B2 HC G57D&S104A-LC-N96E&N31E (humanized, PTM de-risked, No. 6) (antibody, V domains shown) VH: QVQLVQSGAEVKKPGASVKVSCKASGYTFTGYIIQWVRQAPGQRLEWMGFINPYNDDTKYNEQFKGRVTITRDTSASTAYMELSSLRSEDTAVYYCARAYFGNAFAYWGQGTLVTVSS VL: DIVMTQSPDSLAVSLGERATINCKSSQSLLESGNQKNYLTWYQQKPGQPPKLLIYWASTRESGVPDRFSGSGSGTDFTLTISSLQAEDVAVYYCQEGYYFPFTFGGGTKLEIK
reading: 0.493

binder: 4F11E2 HC N55E-LC S32A (BG2001-C) (humanized, PTM de-risked, No. 3) (antibody, V domains shown) VH: EVQLVESGGGLVQPGGSLRLSCAASGFTFSTFGMHWVRQAPGKGLEWVSYITSGESPIYFTDTVKGRFTISRDNAKNSLYLQMNSLRAEDTAVYYCARSSYYGNSMDYWGQGTLVTVSS VL: DIVMTQSPDSLAVSLGERATINCRSSQSLLNAGNRKNYLTWYQQKPGQPPKLLIYWASTRESGVPDRFSGSGSGTDFTLTISSLQAEDVAVYYCQNAYSYPFTFGGGTKLEIK
reading: 0.148

binder: 4F11E2 HC N55Q-LC N31E (humanized, PTM de-risked, No. 1) (antibody, V domains shown) VH: EVQLVESGGGLVQPGGSLRLSCAASGFTFSTFGMHWVRQAPGKGLEWVSYITSGQSPIYFTDTVKGRFTISRDNAKNSLYLQMNSLRAEDTAVYYCARSSYYGNSMDYWGQGTLVTVSS VL: DIVMTQSPDSLAVSLGERATINCRSSQSLLESGNRKNYLTWYQQKPGQPPKLLIYWASTRESGVPDRFSGSGSGTDFTLTISSLQAEDVAVYYCQNAYSYPFTFGGGTKLEIK
reading: 0.238

binder: 72C1B6A3 HC WT-LC S32A (BG2001-D) (humanized, PTM de-risked, No. 5) (antibody, V domains shown) VH: QVQLVQSGAEVKKPGASVKVSCKASGYTFTTYPIEWVRQAPGQRLEWMGNFHPYNDDTKYNEKFKGRVTITRDTSASTAYMELSSLRSEDTAVYYCARRAYGYPYAMDYWGQGTLVTVSS VL: DIVMTQSPDSLAVSLGERATINCKSSQSLLNAGNQKNYLTWYQQKPGQPPKLLIYRASSRESGVPDRFSGSGSGTDFTLTISSLQAEDVAVYYCQNDYIYPYTFGGGTKLEIK
reading: 0.191
